Catalogue of compounds with associated log10 of EC50
- Tgt: human CB2 receptor (Homo sapiens (Human))
- Protocol details: cAMP assay, CHO cells expressing human CB2 receptors
- Condition parameters: functional cAMP assay, read-out: CB2 hcAMP EC50
In plain terms, each number is the log10 of measured EC50 in nM.

Below are worked cases with known answers.
FC1(F)CCN(c2nc(NC3COC3)nc3c2nnn3Cc2ccccc2Cl)C1 ... 1.42
CC(C)c1nc(N2CCC(F)(F)C2)c2nnn(Cc3ccccc3Cl)c2n1 ... -0.30
FC1(F)CCN(c2nc(OC3COC3)nc3c2nnn3Cc2ccccc2Cl)C1 ... 1.34
CC(C)(C)Nc1nc(N2CC[C@H](O)C2)c2nnn(Cc3ccccc3Cl)c2n1 ... 0.36

Continue with the compound presented below.
// returns log10 of EC50 for CC(C)Oc1nc(N2CC[C@H](O)C2)c2nnn(Cc3nnnn3C)c2n1 with human CB2 receptor (Homo sapiens (Human)); value = 2.24

###

Catalogue of molecules with associated pEC50
- Tgt: human CB1 receptor (Homo sapiens (Human), UniProt P21554)
- Sequence (P21554 whole entry): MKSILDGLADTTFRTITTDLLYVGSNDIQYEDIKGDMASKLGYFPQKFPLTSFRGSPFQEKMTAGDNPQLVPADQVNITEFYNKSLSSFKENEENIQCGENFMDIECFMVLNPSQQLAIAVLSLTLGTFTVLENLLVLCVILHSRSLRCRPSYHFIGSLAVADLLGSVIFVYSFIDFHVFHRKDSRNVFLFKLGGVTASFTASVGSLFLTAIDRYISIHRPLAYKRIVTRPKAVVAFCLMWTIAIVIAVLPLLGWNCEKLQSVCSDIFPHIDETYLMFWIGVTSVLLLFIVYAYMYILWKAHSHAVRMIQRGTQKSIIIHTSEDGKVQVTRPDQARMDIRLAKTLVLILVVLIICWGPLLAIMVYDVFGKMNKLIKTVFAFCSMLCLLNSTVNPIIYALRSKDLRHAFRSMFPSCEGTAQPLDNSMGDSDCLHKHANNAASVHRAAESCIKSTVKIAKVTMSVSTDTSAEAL
- Protocol details: cAMP assay, CHO cells expressing human CB1 receptors
- Condition parameters: functional cAMP assay, read-out: CB1 hcAMP EC50
pEC50: −log10 of the molar value.

// returns pEC50 for CCNc1nc(N2CCC(F)(F)C2)c2nnn(Cc3ccccc3Cl)c2n1 with human CB1 receptor (Homo sapiens (Human), UniProt P21554); value = < 5.00

// returns pEC50 for Cn1nnnc1Cn1nnc2c(N3CCC(F)(F)C3)nc(OCC(C)(C)C)nc21 with human CB1 receptor (Homo sapiens (Human), UniProt P21554); value = < 5.00

// returns pEC50 for CC(C)(C)Sc1nc(N2CCC(F)(F)C2)c2nnn(Cc3ccccc3Cl)c2n1 with human CB1 receptor (Homo sapiens (Human), UniProt P21554); value = 6.97

###

- Tgt: human CB2 receptor (Homo sapiens (Human))
- Protocol details: cAMP assay, CHO cells expressing human CB2 receptors
- Condition parameters: functional cAMP assay, read-out: CB2 hcAMP EC50
Labelling field: enter T if recorded EC50 is less than 20 nM. Enter F if it equals or exceeds that cut-off.

# count of solved cases: 4
CC(=O)N[C@H]1CCN(c2nc(OCC(C)(C)C)nc3c2nnn3Cc2ccccc2Cl)C1 ... F
C[C@@]1(O)CCN(c2nc(N3CCOCC3)nc3c2nnn3Cc2ccccc2S(C)(=O)=O)C1 ... F
CC(F)(F)COc1nc(N2CCC(F)(F)C2)c2nnn(Cc3ccccc3Cl)c2n1 ... T
O[C@H]1CCN(c2nc(OCC(F)(F)F)nc3c2nnn3Cc2ccccc2C(F)(F)F)C1 ... T

Next item in the queue.
Consider the molecule CC(C)CS(=O)(=O)c1nc(N2CCC(F)(F)C2)c2nnn(Cc3ccccc3Cl)c2n1 . Is its EC50 strictly less than 20 nM?
T

###

- Tgt: human CB1 receptor (Homo sapiens (Human))
- Protocol details: cAMP assay, CHO cells expressing human CB1 receptors
- Condition parameters: functional cAMP assay, read-out: CB1 hcAMP EC50
pEC50: −log10 of the molar value.
Readout label: pEC50

CCSc1nc(N2CCC(F)(F)C2)c2nnn(Cc3ccccc3Cl)c2n1 [Example 82] ... 6.74

Measured pEC50 of COCCS(=O)(=O)c1nc(N2CCC(F)(F)C2)c2nnn(Cc3ccccc3Cl)c2n1 [Example 96] : < 5.00

Measured pEC50 of C#CCOc1nc(N2CCC(F)(F)C2)c2nnn(Cc3ccccc3Cl)c2n1 [Example 56] : < 5.00

Measured pEC50 of FC(F)(F)CSc1nc(N2CCC(F)(F)C2)c2nnn(Cc3ccccc3Cl)c2n1 [Example 83] : < 5.00

Measured pEC50 of Clc1ccccc1Cn1nnc2c(N3CCCCC3)nc(N3CCCCC3)nc21 [Example 7] : < 5.00

Measured pEC50 of CC(C)(C)Nc1nc(N2CCC(F)(F)C2)c2nnn(Cc3ccccc3S(C)(=O)=O)c2n1 [Example 23] : 6.31

###

- Tgt: human CB2 receptor (Homo sapiens (Human), UniProt P34972)
- Sequence (P34972 whole entry): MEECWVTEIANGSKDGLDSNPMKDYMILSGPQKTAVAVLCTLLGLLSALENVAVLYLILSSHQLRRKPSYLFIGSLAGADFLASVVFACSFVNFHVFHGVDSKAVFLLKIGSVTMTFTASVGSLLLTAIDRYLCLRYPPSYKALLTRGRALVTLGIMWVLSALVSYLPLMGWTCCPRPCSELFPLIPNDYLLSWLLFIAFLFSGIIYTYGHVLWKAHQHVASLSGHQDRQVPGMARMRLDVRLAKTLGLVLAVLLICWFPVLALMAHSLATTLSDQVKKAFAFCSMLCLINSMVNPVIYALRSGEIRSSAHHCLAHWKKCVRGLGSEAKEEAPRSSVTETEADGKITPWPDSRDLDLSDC
- Protocol details: cAMP assay, CHO cells expressing human CB2 receptors
- Condition parameters: functional cAMP assay, read-out: CB2 hcAMP EC50
Readout label: pEC50
# log scale: pEC50 equals minus log10 of the concentration in mol/L

Cn1nnnc1Cn1nnc2c(N3CC[C@H](O)C3)nc(NC(C)(C)C)nc21 [Example 29] ... 7.31

// returns pEC50 for CC(C)(C)COc1nc(N2CCC(F)(F)C2)c2nnn(Cc3ccccc3Cl)c2n1 [Example 52] with human CB2 receptor (Homo sapiens (Human), UniProt P34972); value = 9.10

// returns pEC50 for FC(F)COc1nc(N2CCC(F)(F)C2)c2nnn(Cc3ccccc3Cl)c2n1 [Example 43] with human CB2 receptor (Homo sapiens (Human), UniProt P34972); value = 7.58

// returns pEC50 for CC(O)CSc1nc(N2CCC(F)(F)C2)c2nnn(Cc3ccccc3Cl)c2n1 (stereo not drawn) [Example 90] with human CB2 receptor (Homo sapiens (Human), UniProt P34972); value = 7.81

###

- Tgt: human CB2 receptor (Homo sapiens (Human))
- Protocol details: cAMP assay, CHO cells expressing human CB2 receptors
- Condition parameters: functional cAMP assay, read-out: CB2 hcAMP EC50
Readout label: log10(EC50) (log10 of the value in nM)
In plain terms, each number is the log10 of measured EC50 in nM.

Below are worked cases with known answers.
CC1(Nc2nc(N3CCC(F)(F)C3)c3nnn(Cc4ccccc4Cl)c3n2)COC1 ... 1.10
C[C@]1(O)CCN(c2nc(N3CCOCC3)nc3c2nnn3Cc2ccccc2C(F)(F)F)C1 ... 0.86
CC(C)S(=O)(=O)c1nc(N2CCC(F)(F)C2)c2nnn(Cc3ccccc3Cl)c2n1 ... 0.23
C[C@H](Oc1nc(N2CCC(F)(F)C2)c2nnn(Cc3nnnn3C3CC3)c2n1)C(F)(F)F ... 1.25

Continue with the molecule presented below.
// returns log10(EC50) for C=C(C)c1nc(N2CC[C@H](O)C2)c2nnn(Cc3ccccc3Cl)c2n1 with human CB2 receptor (Homo sapiens (Human)); value = 0.56
